target: recombinant eIF4E (Homo sapiens (Human)); test: Fluorescence polarization competition assay for eIF4E binding potency; settings: fluorescence polarization competition, 75 nM recombinant eIF4E, 20 nM EDA-m7GDP-ATTO-550; IC50 class; read-out: elF4E FP
Sequence (P06730 whole entry): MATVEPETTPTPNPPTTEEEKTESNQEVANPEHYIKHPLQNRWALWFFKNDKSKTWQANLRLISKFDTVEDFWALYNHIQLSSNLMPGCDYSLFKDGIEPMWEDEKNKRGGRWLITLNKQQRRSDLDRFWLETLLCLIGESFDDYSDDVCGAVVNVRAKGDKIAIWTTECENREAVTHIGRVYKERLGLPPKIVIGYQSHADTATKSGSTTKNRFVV
# IC50 listing for each entry below

Look over these answered cases.
>  <chemical string>
Cc1ncc(C#N)c2c(=O)n(CCOc3ccc(Cl)cc3-c3ccc(C)c4c(C(=O)O)csc34)c(C)nc12

>  <IC50>
< 50 nM

$$$$
>  <chemical string>
Cc1nc2cc(C(=O)N(C)C)cc(C#N)c2c(=O)n1CCOc1ccc(Cl)cc1-c1ccnc2c(C(=O)O)csc12

>  <IC50>
< 50 nM

$$$$
>  <chemical string>
Cc1cnc(C)c(-c2nc3c(=O)n(CCOc4ccc(Cl)cc4-c4cc(C)nc5c(C(=O)O)csc45)c(C)nc3cc2C(F)(F)F)n1

>  <IC50>
< 50 nM

$$$$
>  <chemical string>
Cc1cc(-c2cc(Cl)ccc2OCCn2c(C)nc3cc(C(F)(F)F)c(Cc4cccnc4)c(Cl)c3c2=O)c2scc(C(=O)O)c2n1

>  <IC50>
50 to 1000 nM

$$$$

Kindly consider the entry below.
Any idea what IC50 came out for Cc1nc2cc(C(F)(F)F)c(N3CCN(CC(F)(F)F)CC3)c(C#N)c2c(=O)n1CCOc1ccc(Cl)cc1-c1ccnc2c(C(=O)O)csc12 on recombinant eIF4E (Homo sapiens (Human))?
< 50 nM

###

target: recombinant eIF4E (Homo sapiens (Human)); assay: Fluorescence polarization competition assay for eIF4E binding potency; details: inhibition of eIF4E/EDA-m7GDP-ATTO-550 binding; calculated IC50 values, Table 4B; read-out: IC50
observed property: pIC50
Units for pIC50: none; it is -log10 of a concentration expressed in mol/L.

Example results:
>  <compound>
CCN(c1ncc2nc(C)n(CC#Cc3ccc(Cl)cc3-c3ccnc4c(C(=O)NS(=O)(=O)c5ccncc5)csc34)c(=O)c2c1C#N)C1CCN(C2COC2)CC1 [compound 1740]

>  <target under test>
recombinant eIF4E (Homo sapiens (Human))

>  <observed result>
7.90

$$$$
>  <compound>
Cc1nc2cnc(N(C)C3CCN(C4(C(F)F)COC4)CC3)c(C#N)c2c(=O)n1CC#Cc1ccc(Cl)cc1-c1ccnc2c(C(=O)NS(C)(=O)=O)csc12 [compound 1590]

>  <target under test>
recombinant eIF4E (Homo sapiens (Human))

>  <observed result>
7.44

$$$$
>  <compound>
Cc1nc2cnc(N(C)C3CCN(C4CC(F)(F)C4)CC3)c(C#N)c2c(=O)n1CC#Cc1ccc(Cl)cc1-c1ccnc2c(C(=O)NS(=O)(=O)CCC#N)csc12 [compound 1826]

>  <target under test>
recombinant eIF4E (Homo sapiens (Human))

>  <observed result>
7.74

$$$$
>  <compound>
Cc1nc2cnc(N3CCN(C)C4CC43)c(C#N)c2c(=O)n1CCOc1ccc(Cl)cc1-c1cccc2c(C(=O)O)csc12 (stereo not shown) [compound 2020]

>  <target under test>
recombinant eIF4E (Homo sapiens (Human))

>  <observed result>
7.48

$$$$
>  <compound>
Cc1nc2cnc(N3CCC4(CC3)CN(CC(F)F)C4)c(C#N)c2c(=O)n1CC#Cc1ccc(Cl)cc1-c1ccnc2c(C(=O)NS(=O)(=O)c3cccnc3)csc12 [compound 1409]

>  <target under test>
recombinant eIF4E (Homo sapiens (Human))

>  <observed result>
7.97

$$$$

For the compound shown here, Cc1nc2cc(C(F)(F)F)c(N3CCN(C)CC3)nc2c(=O)n1CCOc1ccc(Cl)cc1-c1ccnc2c(C(=O)NS(C)(=O)=O)csc12 [compound 1300] , give the reported pIC50.
7.74

Try this compound too: Cc1nc2cc(C(F)(F)F)cc(C#N)c2c(=O)n1CCOc1ccc(Cl)cc1-c1ccnc(C(=O)NS(C)(=O)=O)c1 [compound 1372]
7.09

# iterate: O=C(O)c1cccc(-c2cc(Cl)ccc2OCCn2c(Nc3ccccc3)nc3c(Cl)nccc3c2=O)c1 [compound 2001]
4.18

Please answer likewise for Cc1nc2cnc(N3CCN(C(C)(C)C(F)(F)F)CC3)c(C#N)c2c(=O)n1CCOc1ccc(Cl)cc1-c1ccnc2c(C(=O)O)csc12 [compound 1316]
7.48

How about this compound: Cc1nc2cnc(N(C)C3CCN(CC(F)F)CC3)c(C#N)c2c(=O)n1CC#Cc1ccc(Cl)cc1-c1ccnc2c(C(=O)NS(=O)(=O)c3ccccn3)csc12 [compound 1566]
8.36

Data credit: patent US11286268B1
